measuredTarget: T1, Las17 (purified recombinant) (S. cerevisiae, UniProt Q12446 1-633)
T1 construct: Las17, the WASP homolog of S. cerevisiae; also called WASP homolog; source: recombinant, purified, produced as reported [25], [45], [46]
T1 sequence (Q12446 whole entry): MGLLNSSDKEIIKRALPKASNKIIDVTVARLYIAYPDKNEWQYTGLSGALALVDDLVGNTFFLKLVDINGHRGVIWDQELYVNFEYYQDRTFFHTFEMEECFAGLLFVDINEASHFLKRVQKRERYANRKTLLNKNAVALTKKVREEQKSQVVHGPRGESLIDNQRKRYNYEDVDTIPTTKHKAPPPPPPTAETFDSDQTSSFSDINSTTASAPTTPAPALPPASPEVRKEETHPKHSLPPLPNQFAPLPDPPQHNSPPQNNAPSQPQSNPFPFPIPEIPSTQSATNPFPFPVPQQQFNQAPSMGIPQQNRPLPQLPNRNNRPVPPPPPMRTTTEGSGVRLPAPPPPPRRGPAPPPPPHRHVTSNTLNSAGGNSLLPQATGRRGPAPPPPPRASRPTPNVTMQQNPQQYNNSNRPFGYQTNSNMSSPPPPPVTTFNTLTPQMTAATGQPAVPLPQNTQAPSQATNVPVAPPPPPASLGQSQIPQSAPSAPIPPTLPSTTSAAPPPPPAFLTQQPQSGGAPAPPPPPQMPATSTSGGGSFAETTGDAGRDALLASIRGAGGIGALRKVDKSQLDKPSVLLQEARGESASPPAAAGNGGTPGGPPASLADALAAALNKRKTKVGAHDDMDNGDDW
assayInfo: SPR; Las17 coupled via an amino group to a CM5 chip, Biacore3000, 25°C, HBS-EP buffer, Lsb1, Lsb2 or their SH3 domains at 25 nM to 10 µM
cond: both partners purified
observable: pKd
Reminder that pKd is minus the log10 of a molar concentration.

Below, 3 binders whose answers are already recorded.
SH3-Lsb2 (purified, GST cleaved off) (domain or fragment, S. cerevisiae, UniProt Q06449 59-110, looked up, Lsb2 (Pin3), S. cerevisiae, SH3 domain, residues 59-110, from pGEX4T-1; also called SH3 domain of Lsb2; source: E. coli BL21, purified (glutathione Sepharose, thrombin cleavage, size exclusion chromatography)) VEALYQFDPQQDGDLGLKPGDKVQLLEKLSPEWYKGSCNGRTGIFPANYVKP ... 6.14
SH3-Lsb1 (purified, GST cleaved off) (domain or fragment, S. cerevisiae, UniProt P53281 57-109, looked up, Lsb1, S. cerevisiae, SH3 domain, residues 57-109, from pGEX4T-1; also called SH3 domain of Lsb1; source: E. coli BL21, purified (glutathione Sepharose, thrombin cleavage, size exclusion chromatography)) YVEALYDFEAQQDGDLSLKTGDKIQVLEKISPDWYRGKSNNKIGIFPANYVKP ... 6.10
Lsb2 (purified, GST cleaved off) (natural protein, S. cerevisiae, UniProt Q06449 1-215, looked up, Lsb2 (Pin3), S. cerevisiae, full-length, from pGEX4T-1; also called full-length Lsb2; Pin3; source: E. coli BL21, purified (glutathione Sepharose, thrombin cleavage, size exclusion chromatography)) MSASLINRSLTNIRTELDFLKGSNVISNDVYDQINKSLPAKWDPANAPRNASPASLEYVEALYQFDPQQDGDLGLKPGDKVQLLEKLSPEWYKGSCNGRTGIFPANYVKPAFSGSNGPSNLPPPPQYKAQELQQIPTQNSAASSYQQQPFPPPSTNYYQQPQQQPQQAPPPQQQQQQQQHQSSHSHLKSFGSKLGNAAIFGAGASIGSDIVNNIF ... 7.10

Inquiry: Identify the reported pKd for the following entry. Lsb1 (purified, GST cleaved off) (natural protein, S. cerevisiae, UniProt P53281 1-241, looked up, Lsb1, S. cerevisiae, full-length, from pGEX4T-1; also called full-length Lsb1; source: E. coli BL21, purified (glutathione Sepharose, thrombin cleavage, size exclusion chromatography)) MSASLVNRSLKNIRNELEFLKESNVISGDIFELINSKLPEKWDGNQRSPQNADTEEYVEALYDFEAQQDGDLSLKTGDKIQVLEKISPDWYRGKSNNKIGIFPANYVKPAFTRSASPKSAEAASSSTVSRPSVPPPSYEPAASQYPSQQVSAPYAPPAGYMQAPPPQQQQAPLPYPPPFTNYYQQPQQQYAPPSQQAPVEAQPQQSSGASSAFKSFGSKLGNAAIFGAGSAIGSDIVNSIF
Reply text: 7.52
